Cited source for all entries: PubChem BioAssay (NCI)

- Tested on: OVCAR-4 ovarian
- Assay Name: NCI-60 one-dose screen, 48 h (100 = growth as untreated, 0 = no growth, -100 = all killed)
- Condition Parameters: 10 µM unless noted
The panel holds about 83,000 compounds, 20% with a hit somewhere; the sample as a whole holds those more often.
Can you tell me growth for the items I'm about to list?
Write it as a number; the unit % goes unstated.

Task: Recorded growth of Brc1ccccc1Cn1c(-c2cncs2)nc2ccccc21 , please.
Result: 72.4

Task: Check C=CCn1c(SCC(=O)Nc2ccc(/C(C)=N\O)cc2)nnc1-c1cc(-c2ccc(Cl)cc2)nc2ccccc12 too.
Result: 35

Task: Check COc1ccc(/C(=C\c2cc(OC)c(OC)c(OC)c2)C(=O)N2CCN(c3ccccc3)CC2)cc1O too.
Result: 98.1

Task: Check Clc1cn2cc(-c3ccc(Cl)c(Cl)c3Cl)nc2s1 too.
Result: 100

Task: Check CNCc1ccccc1CN(CC(=O)Nc1ccc2c(c1)CC1(C2)C(=O)Nc2ncccc21)C(=O)C(C)(C)C (stereo not given) too.
Result: 104

Task: Check COc1ccc(-n2nc(C(=O)NCC(=O)Nc3nc4cc(OC)ccc4s3)c3ccccc3c2=O)cc1 too.
Result: -20.4

Task: Check C[C@@H]1C[C@H](N)C[C@H](c2ccncc2NC(=O)c2ccc(F)c(-c3c(F)cccc3F)n2)C1 too.
Result: 53.2

Task: Check CC(=O)OC1Oc2ccccc2-c2oc3nc(=N)n(C)c-3cc21 (stereo not given) too.
Result: 104

Task: Check CC(=O)O[C@H]1[C@H](CC#CC#CC[C@@H]2C[C@]3(C)[C@H]4CC=C5[C@H]6[C@@H](C)[C@H](C)CC[C@]6(C(=O)NCCCCCCCCN)CC[C@@]5(C)[C@]4(C)CC[C@H]3C(C)(C)[C@H]2OC(C)=O)C[C@]2(C)[C@H]3CC=C4[C@H]5[C@@H](C)[C@H](C)CC[C@]5(C(=O)NCCCCCCCCN)CC[C@@]4(C)[C@]3(C)CC[C@H]2C1(C)C too.
Result: 114

Task: Check COc1c(C(=O)/C=C/c2ccc(C)o2)c(O)cc2occc12 too.
Result: 80.9

Task: Check FC1(F)CCN(Cc2c[nH]c3cc(Cl)ccc23)C[C@H]1CCc1ccccc1 too.
Result: 56.7

Task: Check COc1ccc(NC(=O)c2ccc(C(F)(F)F)nc2Nc2ccc(Cl)cc2C)cc1Cl too.
Result: 24.6

Task: Check C/C=C(\C)C(C(=O)NC1CCCCC1)N(C(=O)C1CCc2cc(F)ccc2O1)c1ccc([N+](=O)[O-])cc1 (stereo not given) too.
Result: 79

Task: Check O=C(Nc1ccc(Oc2ccc(Nc3nc4ccccc4s3)cc2)cc1)Nc1ccc(Cl)c(C(F)(F)F)c1 too.
Result: 17.7

Task: Check Fc1ccc(-c2ccnc3nc(-c4ccncc4)nn23)cc1 too.
Result: 109

Task: Check C[C@@H](C[C@H](CC1CC1)c1ccccc1)c1ccc2ccccc2c1 too.
Result: 96.1

Task: Check COc1ccc(C(=O)/C=C/c2cn(-c3ccccc3)nc2-c2cccc(Nc3ccnc4cc(Cl)ccc34)c2)cc1 too.
Result: 115

Task: Check CN1CCN(Cc2ccc(NC(=O)c3ccc(C#N)c(C#Cc4cnc(N)c5ncccc45)c3)cc2C(F)(F)F)CC1 too.
Result: 75.2

Task: Check Cc1c(-c2ccc(-c3ccccc3F)cc2)nc2ccc(F)cc2c1C(=O)O too.
Result: 75.1

Task: Check CCCCCCCCCCC(C(O)c1ccccc1)N1CCCCC1 (stereo not given) too.
Result: 41

Task: Check COc1cc(NC(C)CCCN)c2ncccc2c1Oc1ccc(Cl)cc1 (stereo not given) too.
Result: 56.3

Task: Check CN(CCO)c1ccc(N2Cc3ccccc3OC3=C2C(=O)c2c(O)ccc(O)c2C3=O)cn1 too.
Result: -97.5

Task: Check COc1ccc(-c2nnc(SCC(=O)Nc3ccc(C(=O)/C=C/c4ccc(Cl)cc4)cc3)n2-c2ccccc2)cc1 too.
Result: 92.4

Task: Check CC1=C(C(=O)Nc2ccc(F)cc2)C(c2ccc(Cl)cc2)C2=C(CC(C)(C)CC2=O)N1 (stereo not given) too.
Result: 77.6

Task: Check CC(C)CC(NC(=O)C(CCCN=C(N)N)NC(=O)OCc1ccccc1)C(=O)NC(CNC(=O)/C=C/c1ccccc1)C(C)C (stereo not given) too.
Result: 95.8

Task: Check COc1ccc(/C(=C\c2ccc3c(c2)OCO3)C(=O)Nc2nc3ccc(F)cc3s2)cc1OC too.
Result: 93.8

Task: Check C#CC[C@@H]1C[C@]2(C)[C@H]3CC[C@@H]4[C@H]5C(C(=C)C)CC[C@]5(C(=O)NCCCN5CCN(CCCN)CC5)CC[C@@]4(C)[C@]3(C)CC[C@H]2C(C)(C)[C@H]1OC(C)=O (stereo not given in full) too.
Result: -42.3

Task: Check O=[N+]([O-])c1cccc(N=C(Nc2cccc([N+](=O)[O-])c2)c2ccccc2)c1 too.
Result: 84.7

Task: Check O=C(NCCNC(=O)c1cc(S(=O)(=O)NCCc2ccccc2)c(O)c(O)c1O)c1cc(S(=O)(=O)NCCc2ccccc2)c(O)c(O)c1O too.
Result: 62.3

Task: Check CCOC(=O)C1=C(C)NC(SCc2nnc(-c3ccc(Cl)cc3)o2)=NC1c1ccc(Cl)cc1 (stereo not given) too.
Result: 70

Task: Check COc1cccc(NC(=O)[C@H](C(C)C)n2c(=O)[nH]c3ccccc3c2=O)c1 too.
Result: 105

Task: Check CCCCCCCCCCCCCCCCCC1=NC(C)(C)CN1C(C)(C)CO too.
Result: 3.31

Task: Check COc1cc(C2CC(c3ccc(Nc4ccnc5cc(Cl)ccc45)cc3)=NN2c2ccccc2)cc(OC)c1OC (stereo not given) too.
Result: 123

Task: Check CCCCCCCCCC1=NC(C)(C)CN1C(C)(C)CO too.
Result: 117

Task: Check COc1ccc2[nH]c(C(=O)OCc3ccc4c(Br)cc(Br)c(O)c4n3)cc2c1 too.
Result: -44.2
